target: wild-type HIV-1 protease (Human immunodeficiency virus type 1 group M subtype B, UniProt P04585)
measured metric: IC50 (nM)

# compound, value reported
records = [
    ("CNC(=O)c1nc2n(c1Cl)CCN(C(=O)c1cccc(CN3C(=N)NC(c4ccccc4)(c4ccccc4)C3=O)c1)C2", 19.2),
    ("CCCn1cc(-c2ncc3c(n2)CN(C(=O)c2cc(CN4C(=N)N[C@](CCCC(F)(F)F)(c5ccc(F)cc5)C4=O)ccc2C(F)(F)F)C3)cn1", 2),
    ("CC(C)C[C@]1(c2ccccc2)NC(=N)N([C@H](C)c2cccc(C(=O)N3Cc4cncnc4C3)c2)C1=O", 23.5),
    ("COCCn1cc(-c2ncc3c(n2)CN(C(=O)c2cc(CN4C(=N)N[C@](CCCC(F)(F)F)(c5ccc(F)cc5)C4=O)ccc2C(F)(F)F)C3)cn1", 2.3),
    ("CC(C)(C)NC(=O)c1nnc2n1CCN(C(=O)c1cccc(CN3C(=N)NC(c4ccccc4)(c4ccccc4)C3=O)c1)C2", 96.1),
    ("CC(C)CC1(c2ccccc2)NC(=N)N(Cc2cccc(C(=O)N3CCC(n4c(=O)[nH]c5nc(F)ccc54)CC3)c2)C1=O (stereo not drawn)", 82.5),
]
